Reported Inhibition is given for each of the following compounds.
# Test system: Oryctolagus cuniculus
# procedure.details: Ability to penetrate the albino rabbit eye and to inhibit the target enzyme in an homogenate of the iris-ciliary body at 1 hr postdosing, ex vivo when dosed in 0.1% aqueousi (hydroxymethyl) cellulose.
# Type: functional
Express your answer in %, writing the number without its unit.

Recorded results for 3 compounds are shown here.
[[record]]
smi = "CC(C)CN(C)Cc1cc(S(=O)(=O)c2csc(S(N)(=O)=O)c2)ccc1O.Cl"
endpoint_result = 26

[[record]]
smi = "COc1ccc(C(=O)c2coc(S(N)(=O)=O)c2)cc1"
endpoint_result = 13

[[record]]
smi = "Cc1ccc(S(=O)(=O)c2coc(S(N)(=O)=O)c2)cc1"
endpoint_result = 36


Let us examine a further case.
Input line: Identify the reported Inhibition for the following entry. COc1ccc(S(=O)(=O)c2coc(S(N)(=O)=O)c2)cc1
Output line: 95

----------
# Test system: Oryctolagus cuniculus
# procedure.details: Ability to penetrate the albino rabbit eye and to inhibit the target enzyme in an homogenate of the iris-ciliary body at 1 hr postdosing, ex vivo when dosed in 0.1% aqueousi (hydroxymethyl) cellulose.
# Format: functional
measured.property: Inhibition (%)
Express your answer in %, writing the number without its unit.

Recorded results for 4 compounds are shown here.
[[record]]
smi = "Cl.NS(=O)(=O)c1cc(S(=O)(=O)c2ccccc2CNCc2ccccn2)cs1"
measured_property = "Inhibition"
endpoint_result = 88

[[record]]
smi = "CN1CCN(Cc2ccc(S(=O)(=O)c3csc(S(N)(=O)=O)c3)cc2)CC1.Cl"
measured_property = "Inhibition"
endpoint_result = 90

[[record]]
smi = "CC(C)CNCc1ccc(S(=O)(=O)c2csc(S(N)(=O)=O)c2)cc1.Cl"
measured_property = "Inhibition"
endpoint_result = 63

[[record]]
smi = "CCN(CC)Cc1cc(S(=O)(=O)c2coc(S(N)(=O)=O)c2)ccc1O.Cl"
measured_property = "Inhibition"
endpoint_result = 58


Input line: Identify the reported Inhibition for the following entry. CN1CCN(Cc2ccccc2S(=O)(=O)c2csc(S(N)(=O)=O)c2)CC1.Cl
Output line: 65

----------
# procedure.details: Solubility measured pH 7.4 at 25 degree C
# Type: physicochemical
# experimental.context: buffer, read-out: S
measured.property: solubility
Please answer using the number first and the unit second.

Input line: Identify the reported solubility for the following entry. CN1CCN(Cc2ccc(C(=O)c3csc(S(N)(=O)=O)c3)cc2)CC1.Cl
Output line: 2000 µg/mL

----------
# procedure.details: Solubility measured in water
# Assay type: physicochemical
# experimental.context: read-out: S
Reported solubility is given for each of the following compounds.
Express your answer in mg/mL, writing the number without its unit.

[[record]]
smi = "Cl.NS(=O)(=O)c1cc(C(=O)c2ccc(CN3CCOCC3)cc2)cs1"
measured_property = "solubility"
endpoint_result = 12.1


Let us examine a further case.
Input line: Identify the reported solubility for the following entry. CN1CCN(Cc2ccc(C(=O)c3csc(S(N)(=O)=O)c3)cc2)CC1.Cl
Output line: 5

----------
# target.or.system: Carbonic anhydrase 2 (Homo sapiens)
measured.property: pIC50
On this scale, pIC50 is minus log10 of a concentration expressed in M (mol/L).

Recorded results for 6 molecules are shown here.
[[record]]
smi = "COc1ccc(C(=O)c2csc(S(N)(=O)=O)c2)cc1"
endpoint_result = 8.49

[[record]]
smi = "CCCCNCc1ccc(S(=O)(=O)c2csc(S(N)(=O)=O)c2)cc1.Cl"
endpoint_result = 7.54

[[record]]
smi = "CC(C)CN(C)Cc1cc(C(=O)c2csc(S(N)(=O)=O)c2)ccc1O.Cl"
endpoint_result = 8.05

[[record]]
smi = "Cl.NS(=O)(=O)c1cc(C(=O)c2ccc(CNCc3ccccc3)cc2)cs1"
endpoint_result = 8.62

[[record]]
smi = "CC(C)CNCc1ccc(C(=O)c2csc(S(N)(=O)=O)c2)cc1.Cl"
endpoint_result = 8.32

[[record]]
smi = "Cl.NS(=O)(=O)c1cc(C(=O)c2cccc(CN3CCOCC3)c2)cs1"
endpoint_result = 8.30


Input line: // output pIC50; input CCN(CC)Cc1ccc(S(=O)(=O)c2csc(S(N)(=O)=O)c2)cc1O.Cl ; system Carbonic anhydrase 2 (Homo sapiens)
Output line: 7.80

Input line: // output pIC50; input Cc1ccc(S(=O)(=O)c2csc(S(N)(=O)=O)c2)cc1 ; system Carbonic anhydrase 2 (Homo sapiens)
Output line: 8.49

Input line: // output pIC50; input Cl.NS(=O)(=O)c1cc(S(=O)(=O)c2ccc(CNCc3ccccn3)cc2)cs1 ; system Carbonic anhydrase 2 (Homo sapiens)
Output line: 8.10
